Biological target: T. suis B ΔC26 (Trichuris suis BCL-2-like protein B, C-terminal truncation) (Trichuris suis)
Test: MST; Monolith NT.115; protein labelled with NHS RED, unlabelled synthetic peptide diluted in phosphate-buffered saline; 30 min incubation; 25 °C; 40% LED and 40% MST power; three independent experiments, single binding model
Recorded Metric: Kd

Lab note: measured Kd of SVRAPIRLCDAMFLMCDLFERKFHDR [T. suis protein A BH3 peptide] was > 50 µM

Let us examine a further case.
Lab note: measured Kd of PILPEVNKTALCMRAMGEVFEDRYKT [T. suis protein B BH3 peptide] was > 50 µM
